TEST SYSTEM: UniProtKB P00747
Sequence (P00747 97-580 limits assumed): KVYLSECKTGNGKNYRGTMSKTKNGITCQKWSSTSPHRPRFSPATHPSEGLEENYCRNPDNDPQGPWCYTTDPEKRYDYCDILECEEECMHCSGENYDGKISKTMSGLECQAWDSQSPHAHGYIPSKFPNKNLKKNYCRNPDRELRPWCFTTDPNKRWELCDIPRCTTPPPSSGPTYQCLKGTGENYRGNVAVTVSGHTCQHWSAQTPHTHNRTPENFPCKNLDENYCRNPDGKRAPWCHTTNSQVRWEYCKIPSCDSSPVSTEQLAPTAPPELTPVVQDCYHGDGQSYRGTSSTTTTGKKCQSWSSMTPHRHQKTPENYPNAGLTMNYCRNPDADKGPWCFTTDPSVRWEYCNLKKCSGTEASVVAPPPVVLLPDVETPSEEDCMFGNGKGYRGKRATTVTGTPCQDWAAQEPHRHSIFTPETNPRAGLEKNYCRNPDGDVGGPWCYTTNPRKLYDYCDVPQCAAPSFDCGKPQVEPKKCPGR
Sequence (P00747 581-810 limits assumed): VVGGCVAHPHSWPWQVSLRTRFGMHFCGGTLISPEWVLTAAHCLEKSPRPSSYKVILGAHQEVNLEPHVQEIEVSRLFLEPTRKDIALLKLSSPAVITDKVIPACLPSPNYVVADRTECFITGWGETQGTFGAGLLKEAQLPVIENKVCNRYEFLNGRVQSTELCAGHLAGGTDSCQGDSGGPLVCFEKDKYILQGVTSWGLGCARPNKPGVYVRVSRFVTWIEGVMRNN
PROTOCOL: Inhibition of plasmin (unknown origin) using H-D-Val-Leu-Lys-pNA as substrate
PROPERTY MEASURED: IC50 (nM)

As a guide, the following entries are already answered.
SUBSTANCE SMILES	VALUE REPORTED
CCCCCCCCNC(=O)[C@H](Cc1ccc(OCc2cccc(N)c2)cc1)NC(=O)[C@H]1CC[C@H](CN)CC1	860
CCCCCCCCNC(=O)[C@H](Cc1ccc(OCc2cccc([N+](=O)[O-])c2)cc1)NC(=O)[C@H]1CC[C@H](CN)CC1	680
CCCCCCCCNC(=O)[C@H](Cc1ccc(OCc2ccc3ccccc3c2)cc1)NC(=O)[C@H]1CC[C@H](CN)CC1	710

I = CCCCCCCCNC(=O)[C@H](Cc1ccc(OC(C)(C)C)cc1)NC(=O)[C@H]1CC[C@H](CN)CC1
II = CCCCCCCCNC(=O)[C@H](Cc1ccc(OCc2cccc(C(F)(F)F)c2)cc1)NC(=O)[C@H]1CC[C@H](CN)CC1
Query string: Between item I and item II , which reported IC50 is smaller? Write down the label of the entry you select.
Result string: II
(II: 600 nM, I: 17000 nM)

a = CCCCCCCCNC(=O)[C@H](Cc1ccc(OCc2ccccc2C(=O)OC)cc1)NC(=O)[C@H]1CC[C@H](CN)CC1
b = CCCCCCCCNC(=O)[C@H](Cc1ccc(OCc2ccncc2)cc1)NC(=O)[C@H]1CC[C@H](CN)CC1
Query string: Between item a and item b , which reported IC50 is smaller? Write down the label of the entry you select.
Result string: b
